Recorded inhibition at 10 µM by entry
test system: OVCAR-4; assay: NCI SRB growth inhibition (single dose 10 µM / five-dose); format: cell-based, human; conditions: Homo sapiens; OVCAR-4 (Ovarian cancer), 10 µM; read-out: GI%

The measured inhibition at 10 µM associated with COc1ccc(-c2nc3cc(C(=O)NN=Cc4ccc(OC)c(O)c4)ccc3[nH]2)cc1 [8l] reads 9.88%

More entries:
The measured inhibition at 10 µM associated with COc1cccc(C=NNC(=O)c2ccc3[nH]c(-c4ccc(Cl)cc4)nc3c2)c1O [8r] reads > 100%

----------
Recorded inhibition at 10 µM by entry
System: K-562
Test: NCI SRB growth inhibition (single dose 10 µM / five-dose)
Format: cell-based, human
Settings: Homo sapiens, K562; K-562 (Leukemia), 10 µM; read-out: GI%
Experimental: Screening of cytotoxic activity against a panel of sixty human tumor cell lines The selected compounds by NCI were evaluated for their anticancer activity in a two- stage process. […] Using the seven absorbance measurements [time zero, (Tz), control growth, (C), and test growth in the presence of drug at the five concentration levels (Ti)], the percentage growth is calculated at each of the drug concentrations levels. […] Three dose response parameters are calculated for each experimental agent. […]
Enter your answer as a number in %; do not include the unit.

Answered examples (5):
The measured inhibition at 10 µM associated with COc1ccc(-c2nc3cc(C(=O)NN=Cc4cc(OC)ccc4OC)ccc3[nH]2)cc1 reads 22.8

The measured inhibition at 10 µM associated with COc1ccc(-c2nc3cc(C(=O)NN=Cc4cccc(OC)c4)ccc3[nH]2)cc1 reads 88.1

The measured inhibition at 10 µM associated with O=C(NN=Cc1cccc(O)c1)c1ccc2[nH]c(-c3ccc(Cl)cc3)nc2c1 reads 49.9

The measured inhibition at 10 µM associated with COc1ccc(OC)c(C=NNC(=O)c2ccc3[nH]c(-c4ccccc4)nc3c2)c1 reads 63

The measured inhibition at 10 µM associated with COc1ccc(C=NNC(=O)c2ccc3[nH]c(-c4ccccc4)nc3c2)cc1O reads 26.2

More entries:
The measured inhibition at 10 µM associated with COc1ccc(-c2nc3cc(C(=O)NN=Cc4ccc(OC)c(O)c4)ccc3[nH]2)cc1 reads 48.5

The measured inhibition at 10 µM associated with COc1cccc(C=NNC(=O)c2ccc3[nH]c(-c4ccccc4)nc3c2)c1O reads 60.9

The measured inhibition at 10 µM associated with COc1ccc(C=NNC(=O)c2ccc3[nH]c(-c4ccc(Cl)cc4)nc3c2)cc1O reads 50.3

Reference source: paper PMC10893631
